Below, each entry is listed alongside its reported protein stability index.
B1: ZNF263 (parent)
chain: QPKKLHLCPLCGKNFSNNSNLIRH

variants of: B1; experiment: protein stability index of a GFP-peptide fusion (GPS, HEK-293T) (PSI 1-6); higher = more stable; conditions: c terminus: a fixed tail appended;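 further: lentivirally expressed fusions sorted by FACS into six bins by GFP to DsRed ratio, PSI derived from sequencing read proportions per bin multiplied by bin number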

Solved entries:
N20H = 2.69
H6C = 1.99
N18I = 2.33
H6D = 2.95
S16C = 2.57
G12W = 1.94
N14M = 2.83
P9V = 2.1
K4W = 2.47
P2D = 2.42

So what does the record say about protein stability index for K13R ?
2.53

Repeat for the following variant: Q1D
3.09

Repeat for the following variant: N20L
3.05

Repeat for the following variant: F15C
2.53

Repeat for the following variant: N20F
1.57

The measurements presented in this section are drawn from the supplement of paper PMC10567573.
